# measurementTarget: BG505 SOSIP.664 HIV-1 Env ectodomain trimer
# assayMethodText: BLI
Entries and their pKd
The read-out pKd is expressed as -log10 of concentration in moles per litre.

{"binder": "PGT151 Fab (Fab, V domains shown) VH: RVQLVESGGGVVQPGKSVRLSCVVSDFPFSKYPMYWVRQAPGKGLEWVAAISGDAWHVVYSNSVQGRFLVSRDNVKNTLYLEMNSLKIEDTAVYRCARMFQESGPPRLDRWSGRNYYYYSGMDVWGQGTTVTVSS VL: DIVMTQTPLSLSVTPGQPASISCKSSESLRQSNGKTSLYWYRQKPGQSPQLLVFEVSNRFSGVSDRFVGSGSGTDFTLRISRVEAEDVGFYYCMQSKDFPLTFGGGTKVDLKR", "measureName": "pKd", "resultNumber": 6.87}

// next item, pKd requested
Ask | State its pKd for this binder: PGT145 antibody (antibody, V domains shown) VH: QVQLVQSGAEVKKPGSSVKVSCKASGNSFSNHDVHWVRQATGQGLEWMGWMSHEGDKTGLAQKFQGRVTITRDSGASTVYMELRGLTADDTAIYYCLTGSKHRLRDYFLYNEYGPNYEEWGDYLATLDVWGHGTAVTVSS VL: EVVITQSPLFLPVTPGEAASLSCKCSHSLQHSTGANYLAWYLQRPGQTPRLLIHLATHRASGVPDRFSGSGSGTDFTLKISRVESDDVGTYYCMQGLHSPWTFGQGTKVEIK
Reply | 8.74
